Source of measurements: the supplement of paper PMC13380429

# System: A549-ACE2 infected with SARS-CoV-2
# test_method_notes: cell count relative to DMSO; higher = less toxic
# measurement_setup: 3 µM; 24 h

{"columns": ["molecule", "cell count / %"],
 "data": [
  ["CNCCCCOc1ccccc1Cc1ccccc1", 106],
  ["CC/C(=C(/c1ccc(OCCN(C)C)cc1)c1cccc(O)c1)c1ccccc1", 113],
  ["CC1=C(C(=O)OC2CCCCC2)C(c2ccc([N+](=O)[O-])cc2)C2=C(CC(C)(C)CC2=O)N1 (centres undefined)", 101],
  ["NS(=O)(=O)C#Cc1ccccc1", 99]
]}

====

# Test system: Calu-3
# test_method_notes: cell viability relative to DMSO; higher = less toxic
# measurement_setup: 72 h; 1 nM

{"columns": ["molecule", "u", "cell viability"],
 "data": [
  ["CN(C)CCOC(c1ccc(Cl)cc1)c1ccccn1 (centres undefined)", "%", 108],
  ["CC1(C)O[C@@H]2C[C@H]3[C@@H]4CCC5=CC(=O)C=C[C@]5(C)[C@@]4(F)[C@@H](O)C[C@]3(C)[C@]2(C(=O)CO)O1 [TRIAMCINOLONE ACETONIDE]", "%", 98.4],
  ["CC1(C)CCC(C)(C)c2cc(C(=O)Nc3ccc(C(=O)O)cc3)ccc21", "%", 89.5],
  ["CC1(C)CCC(C)(C)c2cc(C#Cc3ccc(C(=O)O)cc3)ccc21", "%", 106]
]}
